TARGET: κ opioid receptor (Homo sapiens)
RUN_DESCRIPTION: radioisotope ligand competitive binding assay, κ opioid receptor (KOR)
DETAILS: [3H]Diprenorphine 0.3 nM, cell membrane of stably transfected cells; read-out: κ IC50
pIC50: −log10 of the molar value. Where a name gives a salt, the structure may show the parent alone.
OBSERVABLE: pIC50

>>> result("CN(CCc1ccccc1)[C@H]1[C@H]2CCCCC[C@]1(C)c1cc(O)ccc1C2 [Hydrochloride of compound 30]")
"7.00 to 8.00"
>>> result("CN[C@H]1[C@H]2CCCCC[C@]1(C)c1cc(OC)ccc1C2 [Hydrochloride of compound 1]")
"5.00 to 6.00"
>>> result("C[C@@]12CCCCC[C@@H](Cc3ccc(OCc4ccccc4)cc31)[C@@H]2NCc1ccccc1 [Hydrochloride of compound 39]")
"6.00 to 7.00"
>>> result("CN(Cc1ccccc1)[C@H]1[C@H]2CCCCC[C@]1(C)c1cc(OCc3ccccc3)ccc1C2 [Hydrochloride of compound 40]")
"> 8.00"
>>> result("C[C@@]12CCCCC[C@@H](Cc3ccc(O)cc31)[C@@H]2NCCc1ccccc1 [Hydrochloride of compound 25]")
"6.00 to 7.00"
>>> result("CCCCN[C@H]1[C@H]2CCCCC[C@]1(C)c1cc(OC)ccc1C2 [Hydrochloride of compound 4]")
"5.00 to 6.00"
>>> result("CCCCCN(C)[C@H]1[C@H]2CCCCC[C@]1(C)c1cc(O)ccc1C2 [Hydrochloride of compound 33]")
"6.00 to 7.00"
>>> result("CCCCCN(C)[C@H]1[C@H]2CCCCC[C@]1(C)c1cc(OC)ccc1C2 [Hydrochloride of compound 16]")
"< 5.00"
>>> result("CCCN(C)[C@H]1[C@H]2CCCCC[C@]1(C)c1cc(OC)ccc1C2 [Hydrochloride of compound 14]")
"5.00 to 6.00"
>>> result("COc1ccc2c(c1)[C@@]1(C)CCCCC[C@@H](C2)[C@@H]1NCC1CC1 [Hydrochloride of compound 7]")
"6.00 to 7.00"
>>> result("CCCCN[C@H]1[C@H]2CCCCC[C@]1(C)c1cc(O)ccc1C2 [Hydrochloride of compound 21]")
"7.00 to 8.00"
>>> result("C[C@@]12CCCCC[C@@H](Cc3ccc(O)cc31)[C@@H]2NCc1ccccc1 [Hydrochloride of compound 26]")
"> 8.00"
>>> result("COc1ccc2c(c1)[C@@]1(C)CCCCC[C@@H](C2)[C@@H]1N1CCCC1 [Hydrochloride of compound 12]")
"< 5.00"
>>> result("CC(C)N[C@H]1[C@H]2CCCCC[C@]1(C)c1cc(O)ccc1C2 [Hydrochloride of compound 23]")
"6.00 to 7.00"
>>> result("CN[C@H]1[C@H]2CCCCC[C@]1(C)c1cc(OCc3ccccc3)ccc1C2 [Hydrochloride of compound 38]")
"5.00 to 6.00"
>>> result("CN[C@H]1[C@H]2CCCCC[C@]1(C)c1cc(O)ccc1C2 [Hydrochloride of compound 18]")
"6.00 to 7.00"
>>> result("C[C@@]12CCCCC[C@@H](Cc3ccc(OCc4ccccc4)cc31)[C@@H]2N [Hydrochloride of compound 36]")
"5.00 to 6.00"
>>> result("COc1ccc2c(c1)[C@@]1(C)CCCCC[C@@H](C2)[C@@H]1N(C)C [Hydrochloride of compound 11]")
"< 5.00"
>>> result("CCCCN(C)[C@H]1[C@H]2CCCCC[C@]1(C)c1cc(O)ccc1C2 [Hydrochloride of compound 32]")
"7.00 to 8.00"
>>> result("CCCCCN[C@H]1[C@H]2CCCCC[C@]1(C)c1cc(O)ccc1C2 [Hydrochloride of compound 22]")
"7.00 to 8.00"
>>> result("C[C@@]12CCCCC[C@@H](Cc3ccc(O)cc31)[C@@H]2NCC1CC1 [Hydrochloride of compound 24]")
"6.00 to 7.00"
>>> result("CCOc1ccc2c(c1)[C@@]1(C)CCCCC[C@@H](C2)[C@@H]1NC [Hydrochloride of compound 37]")
"5.00 to 6.00"
